molecular target: sigma receptor (Rattus norvegicus); assay: biochemical; type: binding, rat (male Wistar); conditions: read-out: 50% inhibitory concentration (IC50), Sigma; (+)[3H]3-PPP, rat whole brain membrane, pH 8.0, 21° C., 90 minutes
Sequence (Q9R0C9 whole entry): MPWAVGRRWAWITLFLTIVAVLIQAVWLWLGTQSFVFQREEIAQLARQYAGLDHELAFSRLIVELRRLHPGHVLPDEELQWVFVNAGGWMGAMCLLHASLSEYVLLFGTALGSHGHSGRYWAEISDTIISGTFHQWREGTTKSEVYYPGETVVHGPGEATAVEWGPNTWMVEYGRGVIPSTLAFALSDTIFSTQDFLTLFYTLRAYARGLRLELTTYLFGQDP
Counter-ions that a name gives are not always drawn.
quantity: IC50 (nM)

| compound | result |
| --- | --- |
| CCCN(CCC)CCc1ccc(OCCc2ccccc2)cc1OC [Z, oxalate] | 6.83 |
| CCCN(CCC)CCCc1cc(Br)ccc1OCCc1ccccc1 [F, oxalate] | 10.9 |
| CCCN(CCC)CCc1ccc(OC)cc1OCCc1ccccc1 [Y, oxalate] | 6.6 |
| CCCN(CCC)CCc1ccc(OC)c(OCCc2cccc(Cl)c2)c1 | 1.49 |
| CCCN(CCC)CCc1cc(Cl)ccc1OCCc1ccccc1.O=C(O)C(=O)O [A, oxalate] | 7.21 |
| COc1ccc(CCN2CCN(c3ccccc3)CC2)cc1OCCc1ccccc1 [L, oxalate] | 33 |
| CCCN(CCC)CCc1ccc(OC)c(OCCCc2ccccc2)c1 [K, oxalate] | 4.7 |
| CCCN(CCC)CCc1cc(Br)ccc1OCCc1ccccc1 [E, oxalate] | 11.1 |
| CCCN(CCC)CCc1ccc(OC)c(OCCc2cccs2)c1 [Q, hydrochloride] | 9.35 |
| CCCN(CCC)CCc1ccc(O)c(OCCc2ccccc2)c1 [M, hydrochloride] | 3.09 |
| CCCN(CCC)CCc1cccc(OC)c1OCCc1ccccc1.O=C(O)C(=O)O [T, oxalate] | 2.71 |
| CCCN(CCC)CCc1ccc(Cl)cc1OCCc1ccccc1 [D, hydrochloride] | 17.9 |
| CCCN(CCC)CCc1cc(OC)ccc1OCCc1ccccc1 [X, hydrochloride] | 7.06 |

###

target: D2 receptor (Rattus norvegicus); experiment: Receptor binding experiment: (-)[3H] sulpiride binding; design: species or system rat (male Wistar)
pIC50: −log10 of the molar value. Structures can show the parent of a compound that is named as a salt.
Listing of entries alongside the reported pIC50.
quantity: pIC50

| compound | studyTarget | quantity | resultQualifier | result |
| --- | --- | --- | --- | --- |
| CCCN(CCC)CCc1ccc(OC)cc1OCCc1ccccc1 [Y, oxalate] | D2 receptor (Rattus norvegicus) | pIC50 | = | 5.63 |
| COc1ccc(CCN(C)C)cc1OCc1ccccc1.Cl [AA, hydrochloride, reference compound] | D2 receptor (Rattus norvegicus) | pIC50 | = | 4.39 |
| CCCN(CCC)CCc1ccc(OC)c(OCCc2ccc(OC)cc2)c1 [P, oxalate] | D2 receptor (Rattus norvegicus) | pIC50 | = | 5.30 |
| CCCN(CCC)CCc1cccc(F)c1OCCc1ccccc1 [H, oxalate] | D2 receptor (Rattus norvegicus) | pIC50 | = | 5.45 |
| CCCN(CCC)CCc1ccc(OC)c(OCCc2cccs2)c1 [Q, hydrochloride] | D2 receptor (Rattus norvegicus) | pIC50 | < | 5.00 |
| CCCN(CCC)CCc1ccc(OCCc2ccccc2)cc1OC [Z, oxalate] | D2 receptor (Rattus norvegicus) | pIC50 | = | 5.04 |
| COc1cccc(CCN2CCCC2)c1OCCc1ccccc1 [W, oxalate] | D2 receptor (Rattus norvegicus) | pIC50 | = | 5.27 |
| CCCN(CCC)CCc1cc(F)ccc1OCCc1ccccc1 [G, hydrochloride] | D2 receptor (Rattus norvegicus) | pIC50 | = | 5.72 |
| CCCN(CCC)CCc1ccc(OC)c(OCCc2ccccc2)c1.O=C(O)C(=O)O [I, oxalate] | D2 receptor (Rattus norvegicus) | pIC50 | < | 6.00 |

###

molecular target: D2 receptor (Rattus norvegicus, UniProt P61169); assay: Receptor binding experiment: (-)[3H] sulpiride binding; parameters: species or system rat (male Wistar); conditions: read-out: 50% inhibitory concentration (IC50), D2; (-)[3H] sulpiride, rat corpus striatum membrane, pH 7.7, 37° C., 10 minutes
Sequence (P61169 whole entry): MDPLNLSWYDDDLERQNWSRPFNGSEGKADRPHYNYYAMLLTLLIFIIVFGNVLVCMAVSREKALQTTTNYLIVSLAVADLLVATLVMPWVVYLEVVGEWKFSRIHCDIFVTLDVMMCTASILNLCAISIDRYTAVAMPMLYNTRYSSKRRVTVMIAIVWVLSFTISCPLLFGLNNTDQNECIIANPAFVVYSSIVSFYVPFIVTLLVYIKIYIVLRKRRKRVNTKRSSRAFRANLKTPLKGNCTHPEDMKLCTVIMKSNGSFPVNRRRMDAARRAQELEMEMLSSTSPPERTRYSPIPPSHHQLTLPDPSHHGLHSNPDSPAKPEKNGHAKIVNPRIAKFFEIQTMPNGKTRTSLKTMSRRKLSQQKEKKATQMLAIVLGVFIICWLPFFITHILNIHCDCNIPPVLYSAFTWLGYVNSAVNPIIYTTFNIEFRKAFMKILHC
pIC50: −log10 of the molar value. Counter-ions that a name gives are not always drawn.
Listed here are molecules together with their documented pIC50.
quantity: pIC50

| molecule | result |
| --- | --- |
| CCCN(CCC)CCc1cc(Br)ccc1OCCc1ccccc1 [E, oxalate] | 6.77 |
| CCCN(CCC)CCCc1ccc(OC)c(OCCc2ccccc2)c1.O=C(O)C(=O)O [J, oxalate] | 6.02 |
| CCCN(CCC)CCc1cc(Cl)ccc1OCCc1ccccc1.O=C(O)C(=O)O [A, oxalate] | 6.95 |
| CCCN(CCC)CCc1cc(OC)ccc1OCCc1ccccc1 [X, hydrochloride] | 6.10 |
| COc1ccc(CCN2CCN(c3ccccc3)CC2)cc1OCCc1ccccc1 [L, oxalate] | 6.74 |
| CCCN(CCC)CCCc1cc(Br)ccc1OCCc1ccccc1 [F, oxalate] | 6.36 |

###

molecular target: UniProt Q9R0C9; assay: biochemical; assay type: binding, rat (male Wistar)
Counter-ions that a name gives are not always drawn.

| compound | studyTarget | IC50 (nM) |
| --- | --- | --- |
| CCCN(CCC)CCc1cccc(OC)c1OCCCc1ccccc1 [V, oxalate] | UniProt Q9R0C9 | 1.65 |
| CCCN(CCC)CCc1ccc(OC)c(OCCc2ccc(OC)cc2)c1 [P, oxalate] | UniProt Q9R0C9 | 1.03 |
| COc1ccc(CCN(C)C)cc1OCc1ccccc1.Cl [AA, hydrochloride, reference compound] | UniProt Q9R0C9 | 94.4 |
| CCCN(CCC)CCc1cccc(F)c1OCCc1ccccc1 [H, oxalate] | UniProt Q9R0C9 | 21.6 |
| CCCN(CCC)CCc1cc(F)ccc1OCCc1ccccc1 [G, hydrochloride] | UniProt Q9R0C9 | 13.3 |
| CCCN(CCC)CCc1ccc(OCCc2ccccc2)c(OC)c1 [R, oxalate] | UniProt Q9R0C9 | 11.5 |
| CCCN(CCC)CCc1ccc(OC)c(OCCc2ccc(F)cc2)c1 [N] | UniProt Q9R0C9 | 1.03 |

###

target: D2 receptor (Rattus norvegicus); experiment: Receptor binding experiment: (-)[3H] sulpiride binding; design: species or system rat (male Wistar)
Where a name gives a salt, the structure may show the parent alone.

| compound | resultQualifier | IC50 (nM) |
| --- | --- | --- |
| CCCN(CCC)CCc1ccc(O)c(OCCc2ccccc2)c1 [M, hydrochloride] | = | 2500 |
| CCCN(CCC)CCc1ccc(OCCc2ccccc2)c(OC)c1 [R, oxalate] | > | 10000 |
| CCCN(CCC)CCc1ccc(Cl)cc1OCCc1ccccc1 [D, hydrochloride] | = | 1450 |
| CCCN(CCC)CCc1cccc(OC)c1OCCc1ccccc1.O=C(O)C(=O)O [T, oxalate] | > | 10000 |

###

molecular target: sigma receptor (Rattus norvegicus); assay: biochemical; format: binding, rat (male Wistar); details: (+)[3H]3-PPP, rat whole brain membrane, pH 8.0, 21° C., 90 minutes
pIC50: −log10 of the molar value. Structures can show the parent of a compound that is named as a salt.
Parameter: pIC50. Scope: all listed entries.
quantity: pIC50

| compound | result |
| --- | --- |
| CCCN(CCC)CCCc1cc(Cl)ccc1OCCc1ccccc1 [B, oxalate] | 7.54 |
| CCCN1CCCC(c2cccc(O)c2)C1 (single isomer, unassigned) [Compound 3-PPP, 3-(3-hydroxyphenyl)-N-n-propylpiperidine, reference compound] | 7.61 |
| CCCN(CCCO)CCc1ccc(OC)c(OCCc2ccccc2)c1 [S, oxalate] | 7.73 |
| CCCN(CCC)CCCc1ccc(OC)c(OCCc2ccccc2)c1.O=C(O)C(=O)O [J, oxalate] | 9.01 |
| CCCN(CCC)CCCc1cccc(OC)c1OCCc1ccccc1 [U, oxalate] | 7.90 |
| CCCN(CCC)CCCCc1cc(Cl)ccc1OCCc1ccccc1 [C, oxalate] | 7.58 |

###

# pIC50 listing for each entry below
target: D2 receptor (Rattus norvegicus, UniProt P61169); assay: Receptor binding experiment: (-)[3H] sulpiride binding; set-up: species or system rat (male Wistar); conditions: (-)[3H] sulpiride, rat corpus striatum membrane, pH 7.7, 37° C., 10 minutes
pIC50: −log10 of the molar value. Where a name gives a salt, the structure may show the parent alone.

| compound | studyTarget | pIC50 |
| --- | --- | --- |
| CCCN(CCC)CCCc1cc(Cl)ccc1OCCc1ccccc1 [B, oxalate] | D2 receptor (Rattus norvegicus, UniProt P61169) | < 6.00 |
| CCCN(CCC)CCc1ccc(OC)c(OCCc2cccc(Cl)c2)c1 | D2 receptor (Rattus norvegicus, UniProt P61169) | 5.18 |
| CCCN(CCCO)CCc1ccc(OC)c(OCCc2ccccc2)c1 [S, oxalate] | D2 receptor (Rattus norvegicus, UniProt P61169) | < 5.00 |
| CCCN(CCC)CCc1ccc(OC)c(OCCc2ccc(F)cc2)c1 | D2 receptor (Rattus norvegicus, UniProt P61169) | < 5.00 |
